Hello, the source for this data is patent US9944639B2, in case you need it.

biological target: PI3Kδ (Homo sapiens); construct: endogenous in cells; assay: Cell Based Assay for PI3Kδ (AKT phosphorylation, AlphaScreen SureFire, anti-IgM stimulated Raji cells); conditions: compounds 1 h, anti-IgM (3 μg/mL) 30 min, phosphorylation of AKT, read-out: PI3Kδ inhibition IC50
Sequence (O00329 whole entry): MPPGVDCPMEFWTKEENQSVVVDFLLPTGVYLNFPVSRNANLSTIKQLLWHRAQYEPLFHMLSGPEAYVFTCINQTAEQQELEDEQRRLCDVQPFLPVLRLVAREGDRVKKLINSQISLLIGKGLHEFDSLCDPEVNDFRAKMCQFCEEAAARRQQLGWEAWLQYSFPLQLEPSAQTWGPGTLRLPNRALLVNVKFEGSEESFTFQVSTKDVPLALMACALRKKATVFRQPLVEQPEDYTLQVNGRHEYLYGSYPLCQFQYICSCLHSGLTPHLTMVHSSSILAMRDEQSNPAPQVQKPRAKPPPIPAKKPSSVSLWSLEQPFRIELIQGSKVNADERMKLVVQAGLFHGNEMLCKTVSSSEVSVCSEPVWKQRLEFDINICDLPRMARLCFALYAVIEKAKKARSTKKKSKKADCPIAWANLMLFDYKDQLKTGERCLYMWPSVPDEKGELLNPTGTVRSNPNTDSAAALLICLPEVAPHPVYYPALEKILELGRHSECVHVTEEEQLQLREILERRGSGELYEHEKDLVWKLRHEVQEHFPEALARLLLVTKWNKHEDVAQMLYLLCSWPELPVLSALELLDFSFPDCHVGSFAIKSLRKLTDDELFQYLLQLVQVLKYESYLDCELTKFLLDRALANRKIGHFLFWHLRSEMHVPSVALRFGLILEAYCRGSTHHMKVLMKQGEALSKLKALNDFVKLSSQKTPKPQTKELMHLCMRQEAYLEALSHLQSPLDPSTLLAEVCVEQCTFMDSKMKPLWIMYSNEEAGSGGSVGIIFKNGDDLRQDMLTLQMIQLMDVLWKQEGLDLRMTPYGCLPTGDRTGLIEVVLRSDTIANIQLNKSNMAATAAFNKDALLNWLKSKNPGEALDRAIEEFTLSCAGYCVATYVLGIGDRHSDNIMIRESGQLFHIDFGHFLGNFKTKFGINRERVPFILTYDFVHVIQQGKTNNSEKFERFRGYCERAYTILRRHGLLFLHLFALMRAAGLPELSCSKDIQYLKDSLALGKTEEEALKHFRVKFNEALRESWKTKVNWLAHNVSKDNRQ
Sequence (P27986 whole entry partner): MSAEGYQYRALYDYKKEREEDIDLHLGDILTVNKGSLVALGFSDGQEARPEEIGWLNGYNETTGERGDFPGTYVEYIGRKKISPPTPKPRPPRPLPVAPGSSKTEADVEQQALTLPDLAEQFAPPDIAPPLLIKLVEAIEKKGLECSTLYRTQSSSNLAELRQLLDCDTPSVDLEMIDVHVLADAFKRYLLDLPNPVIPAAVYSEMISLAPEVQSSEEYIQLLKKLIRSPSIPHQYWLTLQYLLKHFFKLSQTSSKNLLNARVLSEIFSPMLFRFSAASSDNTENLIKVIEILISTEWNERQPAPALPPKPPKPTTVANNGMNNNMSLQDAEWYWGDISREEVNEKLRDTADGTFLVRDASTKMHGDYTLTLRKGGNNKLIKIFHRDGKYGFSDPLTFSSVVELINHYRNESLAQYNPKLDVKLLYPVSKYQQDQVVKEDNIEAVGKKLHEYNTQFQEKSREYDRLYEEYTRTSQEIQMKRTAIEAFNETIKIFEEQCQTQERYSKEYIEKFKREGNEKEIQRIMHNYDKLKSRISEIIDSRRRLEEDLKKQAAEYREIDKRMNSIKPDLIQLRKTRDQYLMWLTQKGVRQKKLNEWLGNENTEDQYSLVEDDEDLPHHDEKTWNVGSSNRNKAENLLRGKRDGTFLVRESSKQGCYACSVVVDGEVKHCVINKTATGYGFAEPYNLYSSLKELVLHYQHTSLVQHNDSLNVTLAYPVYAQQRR
property-label: IC50

Would you please look over these solved cases?
compound	IC50
Cc1cccc2cc([C@H](C)Nc3nc(N)nc4[nH]cnc34)c(-c3cc(F)cc(F)c3)c(=O)n12 (single isomer, unassigned) [Compound 18a]	0.1 to 10 nM
Cc1cccc2cc([C@H](C)Nc3ncnc(N)c3C#N)c(-c3ccc(F)c(F)c3)c(=O)n12 (single isomer, unassigned) [Compound 19a]	11 to 50 nM
C[C@H](Nc1ncnc(N)c1C#N)c1cc2ccccn2c(=O)c1-c1ccccc1 (single isomer, unassigned)	11 to 50 nM
C[C@H](Nc1ncnc2[nH]cc(C#N)c12)c1cc2ccc(F)cn2c(=O)c1-c1ccccc1	0.1 to 10 nM

For this compound ( CC(c1cc2ccc(F)cn2c(=O)c1-c1ccccc1)n1nc(-c2ccc3c(c2)CC(=O)N3)c2c(N)ncnc21 (stereo not drawn) ), measured IC50 is 51 to 250 nM

The recorded IC50 for CC[C@H](Nc1nc(N)nc(N)c1C#N)c1cc2ccc(F)cn2c(=O)c1-c1ccccc1 (single isomer, unassigned) [Compound 42a] is 0.1 to 10 nM
